Experiment: Biodistribution in BxPC3-luc tumor-bearing mice
Format: in vivo, BALB/c nu/nu mice
Settings: female, BALB/c nu/nu, spleen, iv, total radioactivity; 1 h, blocking: co-injection of IPLPPPRRPFFK 1 mg/mouse; read-out: Biodistribution, Spleen
Where a SMILES comes first, the peptide text is derived from it. The star is where a group is joined. DOTA = O=C(O)CN1CCN(CC(=O)O)CCN(CC(=O)*)CCN(CC(=O)O)CC1; AEEA = NCCOCCOCC(=O)O
Value Type: tissue uptake at 1 h (%ID/g)

[
  {
    "Compound": "CC[C@H](C)[C@H](NC(=O)COCCOCCNC(=O)CN1CCN(CC(=O)O)CCN(CC(=O)O)CCN(CC(=O)O)CC1)C(=O)N1CCC[C@H]1C(=O)N[C@@H](CC(C)C)C(=O)N1CCC[C@H]1C(=O)N1CCC[C@H]1C(=O)N1CCC[C@H]1C(=O)N[C@@H](CCCNC(=N)N)C(=O)N[C@@H](CCCNC(=N)N)C(=O)N1CCC[C@H]1C(=O)N[C@@H](Cc1ccccc1)C(=O)N[C@@H](Cc1ccccc1)C(=O)N[C@@H](CCCCN)C(=O)O [[^67Ga]27, [^67Ga]Ga-DOTA-EG2-IPLPPPRRPFFK, metal not drawn] ({DOTA-AEEA}-IPLPPPRRPFFK-OH)",
    "Recorded Value": 0.29
  }
]
